All values here come from patent US4396613A.

- Test system: Staphylococcus aureus S13E
- ASSAY COMMENT: standard agar-dilution assay (MIC)
- Format: cell-based
- CONDITION INFO: unit assumed
Assign MIC to each entry below.
Your reply should be a number followed by the unit it is expressed in.

What reported MIC corresponds to CCC1OC(=O)CC(O)C(C)C(OC2OC(C)C(OC3CC(C)(O)C(O)C(C)O3)C(N(C)C)C2O)C(CC=O)CC(C)C(=O)C=CC(C)=CC1COC(=O)NCCCO (centres unmarked) on Staphylococcus aureus S13E?
4 µg/mL

What reported MIC corresponds to CCC1OC(=O)CC(O)C(C)C(OC2OC(C)C(OC3CC(C)(O)C(O)C(C)O3)C(N(C)C)C2OC(C)=O)C(CC=O)CC(C)C(=O)C=CC(C)=CC1COC(=O)Cc1ccc([N+](=O)[O-])cc1 (centres unmarked) on Staphylococcus aureus S13E?
0.25 µg/mL

What reported MIC corresponds to CCC1OC(=O)CC(O)C(C)C(OC2OC(C)C(OC3CC(C)(O)C(O)C(C)O3)C(N(C)C)C2OC(=O)Cc2ccccc2)C(CC=O)CC(C)C(=O)C=CC(C)=CC1COC(=O)Cc1ccccc1 (centres unmarked) on Staphylococcus aureus S13E?
1 µg/mL

What reported MIC corresponds to CCC(=O)OC1C(OC2C(CC=O)CC(C)C(=O)C=CC(C)=CC(COC(C)=O)C(CC)OC(=O)CC(O)C2C)OC(C)C(OC2CC(C)(O)C(O)C(C)O2)C1N(C)C (centres unmarked) on Staphylococcus aureus S13E?
1 µg/mL

What reported MIC corresponds to CCC(=O)OCC1C=C(C)C=CC(=O)C(C)CC(CC=O)C(OC2OC(C)C(OC3CC(C)(O)C(O)C(C)O3)C(N(C)C)C2O)C(C)C(O)CC(=O)OC1CC (centres unmarked) on Staphylococcus aureus S13E?
1 µg/mL

###

- Tested on: Streptococcus Group 9960
Checkbox rule: MIC lower than 1 µg/mL = YES; MIC not lower than 1 µg/mL = NO.

A record lists CCC1OC(=O)CC(O)C(C)C(OC2OC(C)C(OC3CC(C)(O)C(O)C(C)O3)C(N(C)C)C2OC(C)=O)C(CC=O)CC(C)C(=O)C=CC(C)=CC1COC(=O)COc1ccccc1 (stereo not shown) . Is its MIC below 1 µg/mL?
YES

A record lists CCC1OC(=O)CC(O)C(C)C(OC2OC(C)C(OC3CC(C)(O)C(O)C(C)O3)C(N(C)C)C2O)C(CC=O)CC(C)C(=O)C=CC(C)=CC1COC(=O)NCCN1CCOCC1 (stereo not shown) . Is its MIC below 1 µg/mL?
NO

A record lists CCC1OC(=O)CC(O)C(C)C(OC2OC(C)C(OC3CC(C)(O)C(O)C(C)O3)C(N(C)C)C2OC(C)=O)C(CC=O)CC(C)C(=O)C=CC(C)=CC1COC(=O)CCc1ccccc1 (stereo not shown) . Is its MIC below 1 µg/mL?
YES

A record lists CCC1OC(=O)CC(O)C(C)C(OC2OC(C)C(OC3CC(C)(O)C(O)C(C)O3)C(N(C)C)C2OC(C)=O)C(CC=O)CC(C)C(=O)C=CC(C)=CC1COC(=O)C12CC3CC(CC(C3)C1)C2 (stereo not shown) . Is its MIC below 1 µg/mL?
NO

A record lists CCC1OC(=O)CC(O)C(C)C(OC2OC(C)C(OC3CC(C)(O)C(O)C(C)O3)C(N(C)C)C2OC(C)=O)C(CC=O)CC(C)C(=O)C=CC(C)=CC1COC(=O)OC (stereo not shown) . Is its MIC below 1 µg/mL?
YES

A record lists CCC1OC(=O)CC(O)C(C)C(OC2OC(C)C(OC3CC(C)(O)C(O)C(C)O3)C(N(C)C)C2OC(C)=O)C(CC=O)CC(C)C(=O)C=CC(C)=CC1COC(=O)Cc1ccc([N+](=O)[O-])cc1 (stereo not shown) . Is its MIC below 1 µg/mL?
YES

A record lists CCC1OC(=O)CC(O)C(C)C(OC2OC(C)C(OC3CC(C)(O)C(O)C(C)O3)C(N(C)C)C2O)C(CC=O)CC(C)C(=O)C=CC(C)=CC1COC(=O)OC (stereo not shown) . Is its MIC below 1 µg/mL?
YES
